Data provenance is ChEMBL document CHEMBL4602617.

Molecular target: Casein kinase I isoform gamma-3 (Homo sapiens, UniProt Q9Y6M4)
Sequence (Q9Y6M4 whole entry, canonical isoform): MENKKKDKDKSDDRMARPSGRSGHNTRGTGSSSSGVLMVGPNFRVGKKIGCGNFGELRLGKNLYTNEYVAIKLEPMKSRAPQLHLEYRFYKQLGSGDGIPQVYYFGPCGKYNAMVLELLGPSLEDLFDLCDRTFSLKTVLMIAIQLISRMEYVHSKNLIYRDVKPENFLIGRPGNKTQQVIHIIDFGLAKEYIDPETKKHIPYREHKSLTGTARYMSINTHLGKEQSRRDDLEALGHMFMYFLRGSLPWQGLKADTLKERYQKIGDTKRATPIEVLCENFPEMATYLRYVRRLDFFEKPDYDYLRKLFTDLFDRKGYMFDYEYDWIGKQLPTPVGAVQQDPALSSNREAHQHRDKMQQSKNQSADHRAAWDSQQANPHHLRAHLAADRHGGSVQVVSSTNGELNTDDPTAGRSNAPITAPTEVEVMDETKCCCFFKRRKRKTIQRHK
Experiment: Inhibition of recombinant human full-length GST-tagged CSNK1G3 expressed in baculovirus expression system using FRET-labeled Ser/Thr 05 peptide as substrate measured after 1 hr in presence of ATP by Z'-lyte assay
pIC50: −log10 of the molar value.
endpointName: pIC50

INSERT INTO results (itemsmiles, result) VALUES
  ('C[C@@H]1C[C@H]1C(=O)N1CCN(c2cnc(C#N)c(-c3cnn(C)c3)n2)C[C@H]1C', '< 4.00');

====

Target: Serine/threonine-protein kinase Sgk1 (Homo sapiens)
Sequence (O00141 whole entry, the tested form may be a part): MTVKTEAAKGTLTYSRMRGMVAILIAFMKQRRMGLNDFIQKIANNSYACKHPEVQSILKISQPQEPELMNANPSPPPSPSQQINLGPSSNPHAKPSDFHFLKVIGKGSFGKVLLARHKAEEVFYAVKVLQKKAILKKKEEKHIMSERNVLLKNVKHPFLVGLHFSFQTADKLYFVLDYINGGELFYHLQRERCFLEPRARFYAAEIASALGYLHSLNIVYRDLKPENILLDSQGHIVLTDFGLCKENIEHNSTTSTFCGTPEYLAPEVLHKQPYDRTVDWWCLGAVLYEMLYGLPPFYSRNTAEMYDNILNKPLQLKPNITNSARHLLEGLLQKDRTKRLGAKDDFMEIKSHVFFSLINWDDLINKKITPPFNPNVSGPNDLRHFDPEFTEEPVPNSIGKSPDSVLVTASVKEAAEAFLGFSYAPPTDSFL
Assay: Inhibition of recombinant human GST-tagged SGK1 catalytic domain (60 to 431 residues) expressed in baculovirus expression system using serine/threonine-6 peptide as substrate incubated for 60 mins in presence of ATP by Z'-LYTE assay
endpointName: IC50

INSERT INTO measurements (itemsmiles, result) VALUES
  ('C[C@@H]1C[C@H]1C(=O)N1CCN(c2cnc(C#N)c(-c3cnn(C)c3)n2)C[C@H]1C', '> 100 µM');

====

Molecular target: Ephrin type-A receptor 8 (Homo sapiens, UniProt P29322)
Sequence (P29322 whole entry, the tested form may be a part): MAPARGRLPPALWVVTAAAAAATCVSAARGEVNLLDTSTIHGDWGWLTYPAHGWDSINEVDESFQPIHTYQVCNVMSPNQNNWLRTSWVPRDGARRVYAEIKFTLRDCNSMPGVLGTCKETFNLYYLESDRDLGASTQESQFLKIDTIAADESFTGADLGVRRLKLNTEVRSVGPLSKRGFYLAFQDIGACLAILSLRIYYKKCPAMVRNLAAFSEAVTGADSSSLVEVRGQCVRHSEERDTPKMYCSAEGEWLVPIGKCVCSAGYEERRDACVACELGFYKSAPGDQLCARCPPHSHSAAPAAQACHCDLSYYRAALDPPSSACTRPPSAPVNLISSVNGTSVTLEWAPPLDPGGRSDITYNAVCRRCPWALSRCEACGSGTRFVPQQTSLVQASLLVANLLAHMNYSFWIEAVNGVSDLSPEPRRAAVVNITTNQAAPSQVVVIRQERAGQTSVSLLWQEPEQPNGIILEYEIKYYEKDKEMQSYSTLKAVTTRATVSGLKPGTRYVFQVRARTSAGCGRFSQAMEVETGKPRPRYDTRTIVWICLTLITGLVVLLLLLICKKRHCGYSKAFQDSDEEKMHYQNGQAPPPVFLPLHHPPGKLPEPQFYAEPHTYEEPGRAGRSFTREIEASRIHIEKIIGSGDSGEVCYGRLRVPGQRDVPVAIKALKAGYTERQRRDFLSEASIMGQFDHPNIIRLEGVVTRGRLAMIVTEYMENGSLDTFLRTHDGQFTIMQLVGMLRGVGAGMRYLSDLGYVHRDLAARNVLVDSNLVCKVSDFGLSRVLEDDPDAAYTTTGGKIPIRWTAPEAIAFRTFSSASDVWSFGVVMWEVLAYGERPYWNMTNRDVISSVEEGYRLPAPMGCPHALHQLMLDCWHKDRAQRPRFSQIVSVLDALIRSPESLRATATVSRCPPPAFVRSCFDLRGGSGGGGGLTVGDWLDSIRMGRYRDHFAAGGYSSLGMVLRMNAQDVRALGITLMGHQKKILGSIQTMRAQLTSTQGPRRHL
Assay: Inhibition of recombinant human GST-tagged EPHA8 catalytic domain (565 to 1005 residues) expressed in baculovirus expression system using tyrosine-2 peptide as substrate incubated for 60 mins in presence of ATP by Z'-LYTE assay
endpointName: IC50

INSERT INTO assay_data (itemsmiles, result) VALUES
  ('C[C@@H]1C[C@H]1C(=O)N1CCN(c2cnc(C#N)c(-c3cnn(C)c3)n2)C[C@H]1C', '> 100 µM');

====

Target: Calcium/calmodulin-dependent protein kinase type II subunit alpha (Homo sapiens)
Sequence (Q9UQM7 whole entry): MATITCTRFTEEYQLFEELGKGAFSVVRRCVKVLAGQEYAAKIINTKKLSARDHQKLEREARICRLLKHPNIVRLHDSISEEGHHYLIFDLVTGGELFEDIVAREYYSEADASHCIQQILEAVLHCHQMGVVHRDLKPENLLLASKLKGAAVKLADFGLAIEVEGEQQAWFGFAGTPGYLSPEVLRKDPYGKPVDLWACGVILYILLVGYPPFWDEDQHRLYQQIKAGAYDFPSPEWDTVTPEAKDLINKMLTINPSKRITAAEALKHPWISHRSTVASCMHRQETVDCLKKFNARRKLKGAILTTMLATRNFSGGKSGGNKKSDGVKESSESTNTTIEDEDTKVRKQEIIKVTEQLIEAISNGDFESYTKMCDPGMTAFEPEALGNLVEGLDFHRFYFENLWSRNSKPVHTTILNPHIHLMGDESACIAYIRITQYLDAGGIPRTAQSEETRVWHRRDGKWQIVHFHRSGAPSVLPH
Assay: Inhibition of recombinant full length human His-tagged CAMK2alpha expressed in baculovirus expression system using serine/threonine-4 peptide as substrate incubated for 60 mins in presence of ATP by Z'-LYTE assay
endpointName: IC50

INSERT INTO assay_data (itemsmiles, testedon, endpointname, result) VALUES
  ('C[C@@H]1C[C@H]1C(=O)N1CCN(c2cnc(C#N)c(-c3cnn(C)c3)n2)C[C@H]1C', 'Calcium/calmodulin-dependent protein kinase type II subunit alpha (Homo sapiens)', 'IC50', '> 100 µM');

====

Target: Serine/threonine-protein kinase Nek6 (Homo sapiens, UniProt Q9HC98)
Sequence (Q9HC98 whole entry): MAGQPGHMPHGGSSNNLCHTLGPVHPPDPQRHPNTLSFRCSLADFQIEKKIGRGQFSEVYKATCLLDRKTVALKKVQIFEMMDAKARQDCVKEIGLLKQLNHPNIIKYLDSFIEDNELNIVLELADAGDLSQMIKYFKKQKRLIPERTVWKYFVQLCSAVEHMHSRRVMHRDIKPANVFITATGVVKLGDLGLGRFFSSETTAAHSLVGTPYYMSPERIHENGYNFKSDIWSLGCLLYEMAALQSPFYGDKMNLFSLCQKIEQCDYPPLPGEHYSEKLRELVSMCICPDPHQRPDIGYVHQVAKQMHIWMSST
Assay: Inhibition of recombinant full length human GST-tagged NEK6 expressed in insect expression system using serine/threonine-22 peptide as substrate incubated for 60 mins in presence of ATP by Z'-LYTE assay
pIC50: −log10 of the molar value.
endpointName: pIC50

INSERT INTO assay_data (itemsmiles, result) VALUES
  ('C[C@@H]1C[C@H]1C(=O)N1CCN(c2cnc(C#N)c(-c3cnn(C)c3)n2)C[C@H]1C', '< 4.00');

====

Biological target: Tyrosine-protein kinase JAK3 (Homo sapiens, UniProt P52333)
Sequence (P52333 whole entry, the tested form may be a part): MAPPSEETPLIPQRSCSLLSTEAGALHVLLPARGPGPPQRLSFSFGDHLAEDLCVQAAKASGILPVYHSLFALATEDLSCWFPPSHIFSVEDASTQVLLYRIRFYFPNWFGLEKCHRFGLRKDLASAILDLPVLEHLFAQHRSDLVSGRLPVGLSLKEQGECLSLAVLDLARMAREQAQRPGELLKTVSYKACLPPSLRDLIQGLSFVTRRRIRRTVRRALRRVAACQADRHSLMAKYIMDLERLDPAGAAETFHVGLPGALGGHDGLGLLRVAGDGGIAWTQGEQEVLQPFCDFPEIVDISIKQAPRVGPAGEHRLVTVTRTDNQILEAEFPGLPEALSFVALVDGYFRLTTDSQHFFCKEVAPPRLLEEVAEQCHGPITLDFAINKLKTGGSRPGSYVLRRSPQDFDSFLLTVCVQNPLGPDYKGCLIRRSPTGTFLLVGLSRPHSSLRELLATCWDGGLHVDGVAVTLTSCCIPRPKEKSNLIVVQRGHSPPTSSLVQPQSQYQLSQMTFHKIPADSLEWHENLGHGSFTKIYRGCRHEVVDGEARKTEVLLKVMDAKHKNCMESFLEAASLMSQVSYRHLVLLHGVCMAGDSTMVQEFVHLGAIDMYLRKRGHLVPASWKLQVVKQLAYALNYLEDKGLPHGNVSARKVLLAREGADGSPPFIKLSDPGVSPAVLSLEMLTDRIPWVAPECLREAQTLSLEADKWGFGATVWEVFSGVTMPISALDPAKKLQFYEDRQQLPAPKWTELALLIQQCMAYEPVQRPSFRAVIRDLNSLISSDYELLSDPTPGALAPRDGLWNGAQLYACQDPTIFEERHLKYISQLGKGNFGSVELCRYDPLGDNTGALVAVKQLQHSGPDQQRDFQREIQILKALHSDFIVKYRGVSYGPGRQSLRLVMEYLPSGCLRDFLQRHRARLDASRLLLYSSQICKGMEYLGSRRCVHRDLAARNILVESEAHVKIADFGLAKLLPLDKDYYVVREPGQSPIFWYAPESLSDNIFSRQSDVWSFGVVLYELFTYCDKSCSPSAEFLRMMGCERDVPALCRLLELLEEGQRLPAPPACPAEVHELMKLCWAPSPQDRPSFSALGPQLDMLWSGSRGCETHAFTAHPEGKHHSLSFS
Assay: Inhibition of recombinant human GST-tagged JAK3 catalytic domain (781 to 1124 residues) expressed in baculovirus expression system using tyrosine-6 peptide as substrate incubated for 60 mins in presence of ATP by Z'-LYTE assay
endpointName: IC50 (µM)

INSERT INTO results (itemsmiles, testedon, resultnumber) VALUES
  ('C[C@@H]1C[C@H]1C(=O)N1CCN(c2cnc(C#N)c(-c3cnn(C)c3)n2)C[C@H]1C', 'Tyrosine-protein kinase JAK3 (Homo sapiens, UniProt P52333)', 13.7);
